Molecular target: T1, GARS, endogenous in H929 multiple myeloma cells (human, UniProt P41250 37-739, limits assumed)
T1 construct: Native protein pulled down from H929 lysates; also called Glycyl-tRNA synthetase; GlyRS
T1 sequence: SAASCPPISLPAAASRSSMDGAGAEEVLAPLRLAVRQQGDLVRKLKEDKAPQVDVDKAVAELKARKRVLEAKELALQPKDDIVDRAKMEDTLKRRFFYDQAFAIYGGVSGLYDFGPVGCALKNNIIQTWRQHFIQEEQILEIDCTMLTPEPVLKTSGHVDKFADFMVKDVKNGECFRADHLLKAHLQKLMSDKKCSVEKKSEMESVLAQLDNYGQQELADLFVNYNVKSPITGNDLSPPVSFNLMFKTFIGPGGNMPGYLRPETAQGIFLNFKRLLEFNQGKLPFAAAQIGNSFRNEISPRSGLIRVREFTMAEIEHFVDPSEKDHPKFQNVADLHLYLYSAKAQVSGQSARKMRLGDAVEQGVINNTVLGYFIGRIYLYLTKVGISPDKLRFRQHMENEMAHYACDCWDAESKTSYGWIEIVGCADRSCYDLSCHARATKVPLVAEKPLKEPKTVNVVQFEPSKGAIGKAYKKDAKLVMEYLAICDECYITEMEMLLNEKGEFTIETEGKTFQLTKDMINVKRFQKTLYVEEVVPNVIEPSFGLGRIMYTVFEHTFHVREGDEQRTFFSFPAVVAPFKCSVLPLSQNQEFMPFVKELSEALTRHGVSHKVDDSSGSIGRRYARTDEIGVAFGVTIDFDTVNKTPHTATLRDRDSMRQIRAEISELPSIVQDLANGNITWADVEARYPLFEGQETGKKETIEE
Test: flow cytometry, H929 + CDH18 siRNA; None 443; surface target GARS putative
Quick list: mAb binding (MFI) per entry.
Number only, please.

Look over these answered cases.
BINDER	mAb binding (MFI)
HW-8 chimeric rabbit-human IgG1 LA/LA/PG (antibody, V domains shown, Fc-silenced (L234A/L235A/P329G) IgG1, kappa; Alexa Fluor 647-labeled in single-step flow cytometry; Cluster C-45) VH: QSLEESGGRLVTPGTPLTLTCTVSGFSLSSYAMSWVRQAPGKGLEWIGAISTGGSTTYASWAKGRFTISKTSSTTVDLKMTSLTTEDTATYFCVRHFRLWGPGTLVTISS VL: QVLTQTPSSVSAAVGGTVTIKCQASQSIGSALAWFQQKPGQRPKLLIYRASNLASGVPSRFKGSGSGTEFALTISGVQREDAATYYCLGGAAAVWAFGAGTNVEIKR	75300
HW-56 chimeric rabbit-human IgG1 LA/LA/PG (antibody, V domains shown, Fc-silenced (L234A/L235A/P329G) IgG1, kappa; Alexa Fluor 647-labeled in single-step flow cytometry; Cluster C-45) VH: QSVKESEGGLFKPTDTLTLTCTASGFTVSTNAVTWVRQAPGNGLEYIGTIGRSGSAYFASWAKRRSTLTRDINLNTVTLKMTSLTAADTATYFCVRGSPGYRTAISIWGPGTLVTISS VL: AVMTQTPSSTSAAVEGTVTINCQASQSISNRLSWFQQKPGQPPKLLIYQASTLASGVPSRFKGSGSGTEFTLTISGVQREDAATYYCLGSYSSSDASFGGGTKLEIKR	400000
HW-45 chimeric rabbit-human IgG1 LA/LA/PG (antibody, V domains shown, Fc-silenced (L234A/L235A/P329G) IgG1, lambda; Alexa Fluor 647-labeled in single-step flow cytometry; Prototype of cluster C-45) VH: QKQLVESGGRLVTPGTPLTLTCTVSGFSLSSYAMGWFRQAPGKGLEWIGIINSYGSTYYASWAKGRFTISKTSTTVDLKITSPTTEDTATYFCGRRIGSARFDPWGPGTLVTVSS VL: SFVLTQPASVQVNLGQTVSLTCTADTLSRSYASWYQQKPGQAPVLLIYRDTRRPSGVPDRFSGSSSGNTATLTISGAQAGDEADYYCATSDGSGSSYRLVFGGGTQLTVTG	59600

Exercise: Field request: mAb binding (MFI) | item: HW-28 chimeric rabbit-human IgG1 LA/LA/PG (antibody, V domains shown, Fc-silenced (L234A/L235A/P329G) IgG1, lambda; Alexa Fluor 647-labeled in single-step flow cytometry; Cluster C-45) VH: QKQLVESGGRLVTPGTPLTLTCTASGFSLSSNAMSWVRQAPGEGLQWIGTISSGGSTYYASWAKGRFTISKTSTTVTLKMTSLTTEDTATYFCARGADLHRLWGPGTLVTVSS VL: SFVLTQPASVQVNLGQTVSLTCTGKPLSRSFASWYQQKPGQAPVLVIYRDTSRPSGVPDRFSGSSSGNTATLTISGAQAGDEADYYCATSDGSGSSYQYVFGGGTQLTVTG
Key: 164000
